Record set of pKi for target or system hCB2-R (Homo sapiens, UniProt P34972).
Recall that pKi is obtained by taking minus log10 of the concentration measured in molar.

Examples with their reported pKi follow.
molecule: NC(=O)CCCN(CCCC1CCCCC1)C(=O)Cc1ccc2ccccc2c1
pKi: 5.57

molecule: NC(=O)CCCN(CCCCCCc1ccccc1)C(=O)Nc1ccccc1
pKi: 6.35

molecule: CCCCc1ccc(CN(CCCC(N)=O)C(=O)Nc2ccccc2)cc1
pKi: 6.92

molecule: NC(=O)CCCN(CCc1ccccc1)C(=O)Nc1ccccc1 [Compound 13, 4-(1-phenethyl-3-phenylureido)butyramide]
pKi: 6.35

// moving on: another record for pKi
// query State measured pKi of the molecule NC(=O)CCCN(CCCC1CCCCC1)C(=O)Nc1ccc2ccccc2c1 with hCB2-R (Homo sapiens, UniProt P34972).
Sequence (P34972 whole entry): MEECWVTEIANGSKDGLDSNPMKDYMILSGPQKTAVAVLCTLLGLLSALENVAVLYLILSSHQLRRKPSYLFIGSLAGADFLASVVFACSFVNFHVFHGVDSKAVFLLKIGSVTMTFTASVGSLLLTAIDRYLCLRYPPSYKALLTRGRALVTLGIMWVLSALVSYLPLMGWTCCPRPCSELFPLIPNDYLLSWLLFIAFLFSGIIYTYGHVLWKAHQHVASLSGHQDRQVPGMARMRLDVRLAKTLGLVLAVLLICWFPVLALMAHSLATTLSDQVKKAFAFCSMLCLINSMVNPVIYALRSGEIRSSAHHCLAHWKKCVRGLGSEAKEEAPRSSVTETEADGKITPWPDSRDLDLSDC
// result 6.00

====

Record set of pKi for target or system UniProtKB P34972.
Recall that pKi is obtained by taking minus log10 of the concentration measured in molar.

Examples with their reported pKi follow.
compound: NC(=O)CCCN(CCC1CCCCC1)C(=O)Nc1ccccc1
pKi: 6.39

compound: NC(=O)CCCN(CCCCCc1ccccc1)C(=O)Nc1ccccc1
pKi: 6.89

compound: NC(=O)CCCCCCCN(CCCC1CCCCC1)C(=O)Cc1ccc2ccccc2c1
pKi: 4.82

// query State measured pKi of the compound NC(=O)CCCN(CCCC1CCCCC1)C(=O)Nc1ccccc1 with UniProtKB P34972.
// result 6.96

// query State measured pKi of the compound NC(=O)CCCN(Cc1ccccc1)C(=O)Nc1ccccc1 [Compound 14, 4-(1-benzyl-3-phenylureido)butyramide] with UniProtKB P34972.
// result 6.08

Reference source for all entries: patent US7504538B2
